Attribution: paper PMC11882969

SYSTEM NAME: UniProt:P21554
ASSAY NOTES: bioSensAll ebBRET signaling profiling, hCB1
Assay type: cell-based
Set-up: host or cells: HEK293SL cells, transient PEI transfection
CONDITIONS: Log [Compound] (M) -5.89285; single replicate values, FigS6a
Decide using Gi1 hCB1: a value greater than or equal to 8 is Criterion met, a smaller one is Criterion not met.

Cc1nc(CC2CC2)oc1-c1nc(Cc2cc3c(cc2Br)OCO3)no1    Criterion not met
Cc1nn(Cc2ccc(Cl)cc2)c(C)c1C(=O)OCC1CSc2ccccc2O1 (stereo not drawn)    Criterion not met
Cc1cc(C(=O)NC(c2ccccc2)c2ccco2)nn1-c1cccc(C#N)c1 (stereo not drawn)    Criterion met
COc1cccc(C(NC(=O)c2cc(C)n(-c3cccc(C(F)(F)F)c3)n2)c2ccco2)c1 (stereo not drawn)    Criterion not met

*Q* Entry COC(=O)C(NC(=O)c1cc(C)n(-c2cccc(F)c2)n1)c1cccs1 (stereo not drawn) : is its Gi1 hCB1 no less than 8?
*A* Criterion met

*Q* # check: Gi1 hCB1 of Cc1cc(C(=O)N2CC3(CCC3)[C@@H]2[C@H]2CCCO2)nn1-c1cccc(C(F)(F)F)c1 (single isomer, unassigned) is greater than or equal to 8
*A* Criterion not met

*Q* Is reported Gi1 hCB1 greater than or equal to 8 here: Cc1c(C(=O)OCC2CSc3ccccc3O2)cnn1Cc1ccccc1 (stereo not drawn)
*A* Criterion met

*Q* Identify whether the reported Gi1 hCB1 of the following compound is 8 or greater: COC(=O)[C@@H]1[C@@H]2CCC[C@@H]2CN1C(=O)c1cc(C)n(-c2cccc(Cl)c2)n1 (racemic)
*A* Criterion met

*Q* Does Cc1cc(C(=O)N2CC3(CCC3)[C@H]2[C@@H]2CCCO2)nn1-c1cccc(C(F)(F)F)c1 have a reported Gi1 hCB1 of at least 8?
*A* Criterion met

---

Entries and their Barr2+GRK2 hCB1 response
SYSTEM NAME: hCB1 (Homo sapiens)
ASSAY NOTES: bioSensAll ebBRET signaling profiling, hCB1
Assay type: cell-based
Parameters: host or cells: HEK293SL cells, transient PEI transfection
CONDITIONS: Barr2+GRK2 biosensor; Log [Compound] (M) -8
Simply state the number, no unit and no words.

// solved cases for Barr2+GRK2 hCB1 response follow
Cn1nc(-c2nnc(C(C)(C)Oc3ccc(C(F)(F)F)cc3)o2)c2ccccc2c1=O    -60.3212
Cc1nn(Cc2ccc(Cl)cc2)c(C)c1C(=O)OCC1CSc2ccccc2O1 (stereo not drawn)    -54.2588
Cc1nc(CC2CC2)oc1-c1nc(Cc2cc3c(cc2Br)OCO3)no1    3.174

// Cc1c(C(=O)OCC2CSc3ccccc3O2)cnn1Cc1ccccc1 (stereo not drawn) : Barr2+GRK2 hCB1 response value = -46.9202

Documented Barr2+GRK2 hCB1 response of Brc1cc2c(cc1Cc1noc(-c3cnn(CC4CC4)c3)n1)OCO2 : -33.5191

Barr2+GRK2 hCB1 response for Cn1nc(-c2nnc(C(C)(C)Oc3ccc(Cl)cc3)o2)c2ccccc2c1=O is -48.8346

---

ASSAY NOTES: Pharmacokinetics: plasma, brain, CSF
CONDITIONS: male, CD-1, mouse, brain, ip, 0.2 mg/kg
Measured half-life values are reported for all entries that follow.
Quick reminder: number only, in h, skip the unit.

Summary for this molecule, COC(=O)[C@@](C)(NC(=O)c1cc(C)n(-c2cccc(C(F)(F)F)c2)n1)c1cccs1 : half-life is 1.87

Note to self: half-life recorded for Cc1cc(C(=O)NC(C)(c2ccco2)c2ccco2)nn1-c1cccc(C(F)(F)F)c1 was 2.08

---

Below is a list of entries, each paired with its recorded Gi1 hCB1 value.
SYSTEM NAME: UniProt P21554
ASSAY NOTES: bioSensAll ebBRET signaling profiling, hCB1
Type: cell-based
Parameters: host or cells: HEK293SL cells, transient PEI transfection
CONDITIONS: Log [Compound] (M) -5.89285; single replicate values, FigS6a
Just the number, please, no unit after it.

The following compounds have reported results that may help.
Cc1cc(C(=O)NC(c2ccccc2)c2ccco2)nn1-c1cccc(C(F)(F)F)c1 (stereo not drawn) [‘1081]    42.6234
Cc1cc(C(=O)NC(c2ccco2)c2ccco2)nn1-c1cccc(C(F)(F)F)c1 [‘1090]    77.9273
Cc1cc(C(=O)N(C)C(c2ccccc2)c2ccco2)nn1-c1cccc(C(F)(F)F)c1 (stereo not drawn) [‘1082]    -8.945
Cc1cc(C(=O)N(C)C(c2ccco2)c2ccco2)nn1-c1cccc(C(F)(F)F)c1 [‘4388]    -9.5
CC(=O)C(c1cccs1)N(C)C(=O)c1cc(C)n(-c2cccc(C(F)(F)F)c2)n1 (stereo not drawn) [‘6829]    23.7381

Entry under test: COC(=O)[C@@H]1[C@@H]2CC[C@@H]2CN1C(=O)c1cc(C)n(-c2cccc(C(F)(F)F)c2)n1 [‘6448] . Its Gi1 hCB1 was 71.5911

// recorded Gi1 hCB1 for Brc1cc2c(cc1Cc1noc(-c3cnn(CC4CC4)c3)n1)OCO2 [‘5424] : -12.001

Given item COC(=O)C(NC(=O)c1cc(C)n(-c2cccc(C(F)(F)F)c2)n1)c1cccs1 (stereo not drawn) [‘60154] , the value recorded as its Gi1 hCB1 is 87.9019

Cn1nc(-c2nnc(C(C)(C)Oc3ccc(Cl)cc3)o2)c2ccccc2c1=O [‘0450] has a reported Gi1 hCB1 of 5.34

---

SYSTEM NAME: hCB1 (Homo sapiens, UniProt P21554)
Sequence (P21554 whole entry): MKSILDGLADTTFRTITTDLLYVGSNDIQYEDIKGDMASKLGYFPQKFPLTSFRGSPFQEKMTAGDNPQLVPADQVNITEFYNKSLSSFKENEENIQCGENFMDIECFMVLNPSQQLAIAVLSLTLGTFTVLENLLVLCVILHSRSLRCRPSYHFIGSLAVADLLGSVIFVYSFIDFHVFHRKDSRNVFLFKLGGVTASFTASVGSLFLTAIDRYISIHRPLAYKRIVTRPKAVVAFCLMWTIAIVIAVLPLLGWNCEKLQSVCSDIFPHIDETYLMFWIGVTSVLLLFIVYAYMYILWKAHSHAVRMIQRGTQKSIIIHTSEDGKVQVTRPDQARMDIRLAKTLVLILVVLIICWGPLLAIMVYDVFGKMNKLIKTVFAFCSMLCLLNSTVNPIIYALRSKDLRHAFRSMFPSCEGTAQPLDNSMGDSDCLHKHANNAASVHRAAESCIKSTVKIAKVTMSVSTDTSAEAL
ASSAY NOTES: bioSensAll ebBRET signaling profiling, hCB1
Assay type: cell-based
Design: host or cells: HEK293SL cells, transient PEI transfection
CONDITIONS: Gi1 biosensor; Log [Compound] (M) -4.22186
List of Gi1 hCB1 response values.
Respond using a number only.

Cc1cc(C(=O)N2CC3(CCC3)[C@@H]2[C@H]2CCCO2)nn1-c1cccc(C(F)(F)F)c1 (single isomer, unassigned) [compound 430]    4.286
Cc1cc(C(=O)N(C)C(c2ccco2)c2ccco2)nn1-c1cccc(C(F)(F)F)c1 [‘4388]    -4.018
Cc1cc(C(=O)N2CC3(CCC3)[C@H]2[C@H]2CCCO2)nn1-c1cccc(C(F)(F)F)c1 [‘1651]    137.59

Consider Cc1cc(C(=O)N2CC3(CCC3)[C@H]2[C@@H]2CCCO2)nn1-c1cccc(C(F)(F)F)c1 [‘5490] . Its measured Gi1 hCB1 response is 126.936

// recorded Gi1 hCB1 response for Cc1cc(C(=O)N2CC3(CCC3)[C@@H]2[C@@H]2CCCO2)nn1-c1cccc(C(F)(F)F)c1 [‘3386] : -31.6589

// Gi1 hCB1 response lookup, molecule = COC(=O)[C@@H]1[C@@H]2CCC[C@@H]2CN1C(=O)c1cc(C)n(-c2cccc(Cl)c2)n1 (racemic) [‘10010] , result: 123.556

So, COc1cccc(C(NC(=O)c2cc(C)n(-c3cccc(C(F)(F)F)c3)n2)c2ccco2)c1 (centres unmarked) [‘1087] ? Its Gi1 hCB1 response was 111.515

Input Cc1cc(C(=O)NC(c2ccccc2)c2ccco2)nn1-c1cccc(C#N)c1 (centres unmarked) [‘12565] . Output Gi1 hCB1 response: 51.3091

---

Known Barr2+GRK2 hCB1 response of a selection of compounds
SYSTEM NAME: UniProt:P21554
ASSAY NOTES: bioSensAll ebBRET signaling profiling, hCB1
Assay type: cell-based
Parameters: host or cells: HEK293SL cells, transient PEI transfection
CONDITIONS: Barr2+GRK2 biosensor; Log [Compound] (M) -5.05788

Some compounds with known Barr2+GRK2 hCB1 response results, for comparison:
Brc1cc2c(cc1Cc1noc(-c3cnn(CC4CC4)c3)n1)OCO2    -53.3016
Cc1nn(Cc2ccc(Cl)cc2)c(C)c1C(=O)OCC1CSc2ccccc2O1 (stereo not drawn)    -35.4335

Record Cc1c(C(=O)OCC2CSc3ccccc3O2)cnn1Cc1ccccc1 (stereo not drawn) . Reported Barr2+GRK2 hCB1 response: -51.0681

Briefly, Barr2+GRK2 hCB1 response measured for Cn1nc(-c2nnc(C(C)(C)Oc3ccc(C(F)(F)F)cc3)o2)c2ccccc2c1=O : -31.9237

For record Cn1nc(-c2nnc(C(C)(C)Oc3ccc(Cl)cc3)o2)c2ccccc2c1=O the listed Barr2+GRK2 hCB1 response is -35.4335

According to the records, this compound Cc1nc(CC2CC2)oc1-c1nc(Cc2cc3c(cc2Br)OCO3)no1 displays Barr2+GRK2 hCB1 response of -5.441
